Measured values drawn from patent US9845291B2 for this set.

SUBJECT OF TEST: estrogen receptor alpha (ESR1) (Homo sapiens, UniProt P03372)
Sequence (P03372 whole entry): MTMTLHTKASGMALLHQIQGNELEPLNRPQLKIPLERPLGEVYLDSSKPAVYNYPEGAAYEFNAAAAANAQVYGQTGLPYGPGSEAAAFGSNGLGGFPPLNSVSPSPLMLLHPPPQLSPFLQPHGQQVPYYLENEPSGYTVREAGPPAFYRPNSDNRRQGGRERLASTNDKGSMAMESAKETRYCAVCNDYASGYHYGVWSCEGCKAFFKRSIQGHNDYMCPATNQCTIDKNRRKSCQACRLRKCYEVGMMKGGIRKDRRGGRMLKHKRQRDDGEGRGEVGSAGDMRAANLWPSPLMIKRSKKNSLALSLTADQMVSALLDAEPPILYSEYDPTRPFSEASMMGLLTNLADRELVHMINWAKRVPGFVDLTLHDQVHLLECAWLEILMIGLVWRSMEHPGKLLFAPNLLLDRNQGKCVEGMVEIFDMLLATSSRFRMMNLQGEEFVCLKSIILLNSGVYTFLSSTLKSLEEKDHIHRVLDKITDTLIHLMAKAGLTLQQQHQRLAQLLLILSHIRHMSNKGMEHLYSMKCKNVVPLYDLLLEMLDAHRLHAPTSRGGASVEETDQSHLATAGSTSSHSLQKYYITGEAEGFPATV
PROTOCOL TEXT: cell-based
PROPERTY NAME: log10 EC50 (log10 of the value in nM)
Each number you see is log10 of EC50, and the unit inside the log is nM.

Reported log10 EC50 ( Cn1c(-c2ccc(O)cc2)c(C(=O)c2ccc(OCCN3CC(CF)C3)cc2)c2ccc(O)cc21 ) = 2.74

Reported log10 EC50 ( Oc1ccc2c(c1)O[C@@H](c1ccc(OCCN3CC(CF)C3)cc1)C1=C2CCOc2ccc(O)cc21 ) = -0.21

Reported log10 EC50 ( Oc1ccc(-c2onc(-c3ccccc3Cl)c2-c2ccc(OCCN3CC(CF)C3)cc2)cc1 ) = -0.68

Reported log10 EC50 ( CCN(Cc1ccc(OCCN2CC(CF)C2)cc1)c1cc(OC)ccc1C1CCc2cc(O)ccc2C1 (stereo not drawn) ) = 0.88

Further cases:
Reported log10 EC50 ( C[C@@H](COc1ccc(C(=O)c2c(-c3ccccc3Cl)noc2-c2ccc(O)cc2)cc1F)N1CC[C@@H](CF)C1 ) = -1.04

Reported log10 EC50 ( O=C(c1ccc(OCCN2CC[C@@H](CF)C2)c(F)c1)c1c(-c2ccccc2Cl)noc1-c1ccc(O)cc1 ) = -0.91
